Assay: Octanol-water partition coefficient, log P of the compound by Shake-flask method
Type: physicochemical
Known logP of a selection of molecules

Molecule | logP
CCOC(=O)C1=C(Nc2ccc(Br)cc2)C(=O)N(C2CCCCC2)C1c1ccccc1 (centres undefined) | 2.25
CCOC(=O)C1=C(Nc2ccc(Br)cc2)C(=O)N(c2ccc(Br)cc2)C1 | 1.75
CCOC(=O)C1=C(Nc2cccc3ccccc23)C(=O)N(C2CCCCC2)C1c1ccccc1 (centres undefined) | 2

For the molecule shown here, CCOC(=O)C1=C(NC2CCCCC2)C(=O)N(c2ccc(Br)cc2)C1 , give the reported logP.
1.8

The measured values listed here are drawn from ChEMBL document CHEMBL2040823.
